# method-summary: Luminescence Cell-Based Dose Response HTS to Identify Inhibitors of 5'UTR Stem-Loop Driven Prion Protein mRNA Translation in H4 Neuroglioblastoma Cells. [Related pubchem assays: 1827 (Project Summary), 1813 (Primary HTS)]
# Assay type: functional
The source made the active and inactive calls.
readout-label: EC50

Here are 6 molecules together with their reported answers.
O=C(Nc1nc(NC(=O)c2ccco2)n(-c2ccccc2)n1)c1ccccc1: 5.2 µM (active)
CCN1CCN(Cc2ccc(NC(=O)c3ccc(C)c(NC(=O)C(=O)c4c[nH]c5ccccc45)c3)cc2C(F)(F)F)CC1: 5.83 µM (active)
CC/C(NCc1cc(OC)cc(OC)c1)=C1/C(=O)NC(=O)N(C2CCCCC2)C1=O: > 120 µM (not active)
O=C1/C(=N\c2ccc(O)cc2)C=C(O)c2ccccc21: > 120 µM (not active)
CCOC(=O)c1cc(CC)sc1NC(=O)CSc1nc2ccccc2c(=O)n1Cc1ccco1: > 120 µM (not active)
CCOc1ccc(N(CC(=O)Nc2ccccc2OC)S(=O)(=O)c2ccccc2)cc1: 0.36 µM (active)

# evaluate next
Req: Look up EC50: CC(C)CNc1nc(N)c([N+](=O)[O-])c(NCC2CCCO2)n1 (configuration not stated)
Resp: 4.6 µM (active)

* * *

So I've got a bunch of molecules here, and I need their IC50 values.
# target-of-assay: Voltage-gated N-type calcium channel alpha-1B subunit/Amyloid beta A4 precursor protein-binding family A member 1 (Homo sapiens, UniProt Q00975+Q02410)
# Sequence (Q00975 whole entry): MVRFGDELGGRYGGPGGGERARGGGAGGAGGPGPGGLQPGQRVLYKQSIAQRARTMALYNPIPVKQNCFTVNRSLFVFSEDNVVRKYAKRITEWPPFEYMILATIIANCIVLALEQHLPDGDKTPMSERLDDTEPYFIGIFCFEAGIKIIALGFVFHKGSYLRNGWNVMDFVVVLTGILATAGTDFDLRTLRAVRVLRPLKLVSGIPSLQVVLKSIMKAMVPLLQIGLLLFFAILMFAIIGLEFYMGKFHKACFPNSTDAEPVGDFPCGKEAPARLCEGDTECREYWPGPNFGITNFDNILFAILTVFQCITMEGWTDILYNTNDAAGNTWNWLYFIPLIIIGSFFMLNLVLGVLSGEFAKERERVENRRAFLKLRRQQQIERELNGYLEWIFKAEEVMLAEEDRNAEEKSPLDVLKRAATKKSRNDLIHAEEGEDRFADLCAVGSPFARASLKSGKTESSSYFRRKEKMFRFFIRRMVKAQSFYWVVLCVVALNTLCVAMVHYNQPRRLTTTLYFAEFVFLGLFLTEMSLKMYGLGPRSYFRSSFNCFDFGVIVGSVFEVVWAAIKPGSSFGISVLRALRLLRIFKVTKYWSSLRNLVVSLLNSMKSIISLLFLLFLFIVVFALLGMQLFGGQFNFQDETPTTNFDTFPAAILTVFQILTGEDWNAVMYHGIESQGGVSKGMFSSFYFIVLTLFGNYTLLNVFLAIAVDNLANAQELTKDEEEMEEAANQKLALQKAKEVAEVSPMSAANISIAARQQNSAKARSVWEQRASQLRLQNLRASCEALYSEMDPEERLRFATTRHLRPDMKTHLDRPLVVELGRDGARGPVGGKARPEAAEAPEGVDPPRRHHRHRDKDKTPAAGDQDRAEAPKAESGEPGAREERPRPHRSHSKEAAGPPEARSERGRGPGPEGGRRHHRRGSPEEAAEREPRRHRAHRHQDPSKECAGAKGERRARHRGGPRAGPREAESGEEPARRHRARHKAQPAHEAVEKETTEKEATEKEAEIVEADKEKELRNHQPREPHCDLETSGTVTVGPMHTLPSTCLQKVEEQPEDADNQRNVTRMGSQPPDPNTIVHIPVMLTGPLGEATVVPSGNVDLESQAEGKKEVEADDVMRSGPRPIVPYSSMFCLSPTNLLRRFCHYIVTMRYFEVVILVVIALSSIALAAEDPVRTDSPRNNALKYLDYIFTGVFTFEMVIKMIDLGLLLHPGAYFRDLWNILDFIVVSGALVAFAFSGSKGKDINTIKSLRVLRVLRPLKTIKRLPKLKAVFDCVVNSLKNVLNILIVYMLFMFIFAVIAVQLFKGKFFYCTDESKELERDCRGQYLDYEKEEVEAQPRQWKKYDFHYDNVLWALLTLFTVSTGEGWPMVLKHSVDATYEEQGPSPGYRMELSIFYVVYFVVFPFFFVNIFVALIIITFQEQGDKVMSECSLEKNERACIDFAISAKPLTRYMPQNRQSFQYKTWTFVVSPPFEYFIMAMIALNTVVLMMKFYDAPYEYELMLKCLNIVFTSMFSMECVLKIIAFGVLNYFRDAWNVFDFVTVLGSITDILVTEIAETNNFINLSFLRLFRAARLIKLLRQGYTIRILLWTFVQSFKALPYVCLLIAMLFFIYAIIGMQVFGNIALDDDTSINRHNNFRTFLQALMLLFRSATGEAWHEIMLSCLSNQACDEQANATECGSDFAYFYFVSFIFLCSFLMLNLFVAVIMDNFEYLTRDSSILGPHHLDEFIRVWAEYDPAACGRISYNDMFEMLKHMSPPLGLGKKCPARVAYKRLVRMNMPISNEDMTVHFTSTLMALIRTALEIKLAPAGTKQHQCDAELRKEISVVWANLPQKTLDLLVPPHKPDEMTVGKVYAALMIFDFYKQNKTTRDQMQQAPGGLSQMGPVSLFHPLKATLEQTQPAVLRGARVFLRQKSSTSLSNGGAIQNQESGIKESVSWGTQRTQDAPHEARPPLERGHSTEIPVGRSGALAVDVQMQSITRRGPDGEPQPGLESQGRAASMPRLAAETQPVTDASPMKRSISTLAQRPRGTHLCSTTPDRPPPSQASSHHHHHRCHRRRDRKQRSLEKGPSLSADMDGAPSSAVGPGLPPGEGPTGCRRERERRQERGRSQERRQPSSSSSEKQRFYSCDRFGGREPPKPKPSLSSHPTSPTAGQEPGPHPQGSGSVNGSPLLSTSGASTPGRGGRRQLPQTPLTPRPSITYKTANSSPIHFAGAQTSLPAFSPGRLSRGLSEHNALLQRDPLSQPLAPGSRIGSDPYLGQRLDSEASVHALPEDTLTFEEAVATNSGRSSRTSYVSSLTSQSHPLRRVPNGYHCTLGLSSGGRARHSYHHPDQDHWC
# Sequence (Q02410 whole entry): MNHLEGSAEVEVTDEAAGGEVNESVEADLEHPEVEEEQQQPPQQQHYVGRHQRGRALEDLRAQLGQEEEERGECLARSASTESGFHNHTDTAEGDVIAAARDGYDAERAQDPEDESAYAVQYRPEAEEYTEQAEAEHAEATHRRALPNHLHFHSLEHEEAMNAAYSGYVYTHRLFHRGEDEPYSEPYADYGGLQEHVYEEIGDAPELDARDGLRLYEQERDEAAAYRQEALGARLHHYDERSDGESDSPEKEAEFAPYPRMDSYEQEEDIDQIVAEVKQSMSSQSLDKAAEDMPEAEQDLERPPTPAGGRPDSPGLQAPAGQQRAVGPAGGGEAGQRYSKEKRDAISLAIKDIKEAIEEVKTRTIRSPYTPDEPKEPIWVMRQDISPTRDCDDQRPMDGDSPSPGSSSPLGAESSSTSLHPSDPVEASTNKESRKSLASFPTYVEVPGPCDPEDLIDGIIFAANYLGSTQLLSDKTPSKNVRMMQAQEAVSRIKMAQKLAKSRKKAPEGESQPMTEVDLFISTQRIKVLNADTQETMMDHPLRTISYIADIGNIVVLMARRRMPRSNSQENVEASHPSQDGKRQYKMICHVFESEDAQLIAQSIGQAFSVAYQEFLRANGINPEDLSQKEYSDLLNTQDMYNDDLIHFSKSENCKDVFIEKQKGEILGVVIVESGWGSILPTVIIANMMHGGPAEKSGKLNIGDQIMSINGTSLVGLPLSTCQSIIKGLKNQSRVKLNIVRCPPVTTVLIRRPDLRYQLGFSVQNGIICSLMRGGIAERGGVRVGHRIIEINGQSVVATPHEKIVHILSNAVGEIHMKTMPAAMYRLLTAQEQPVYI
# Assay type: protein assay
Active and inactive are the calls of the source.

O=C(COc1ccc(/C=N/NC(=O)c2ccc(O)cc2)cc1)Nc1ccc([N+](=O)[O-])cc1: 9.71 µM (active)
Cn1c2ccccc2c2cc(/C=N/NC(=O)c3cc(O)ccc3O)ccc21: 15.2 µM (active)
CN(CCC#N)C(=O)COC(=O)c1c2c(nc3ccccc13)/C(=C/c1ccco1)CC2: 6.34 µM (active)
CC(=O)Oc1ccc(/C=N\NC(=O)c2cc3c(ccc4ccccc43)o2)cc1: 4.06 µM (active)

Req: Look up IC50: Cc1ccc(-c2cc(C(=O)N3CC(C)CC(C)C3)c3ccccc3n2)o1 (stereo not given)
Resp: 11.3 µM (active)

* * *

# target-of-assay: Protein skinhead-1 (Caenorhabditis elegans)
# Format: functional
The source made the active and inactive calls.
Pick one and only one: 1 (yes) for active, 0 (no) for inactive

CCOc1ccc(/C=C/C2=Cc3c(sc(NC(=O)CSc4nnc(N)[nH]4)c3C#N)C(C)(C)C2)cc1: 0 (no)
CCC(=O)N1CCN(c2ccc(NC(=O)c3cc4ccccc4o3)cc2Cl)CC1: 0 (no)
Cc1cccc(NC(=O)c2ccc3c(c2)C(=O)N(c2ccccc2C)C3=O)n1: 0 (no)
COc1ccc(C(C(=O)NC2CCCCC2)N(Cc2cccs2)C(=O)Cc2c[nH]c3ccccc23)cc1 (stereo not given): 0 (no)

Please find the next compound below.
Req: # lookup: test call for O=[N+]([O-])c1cccc(/C=C/c2ccccn2)c1
Resp: 1 (yes)

* * *

# target-of-assay: Polyadenylate-binding protein 1 (Homo sapiens, UniProt P11940)
# Sequence (P11940 whole entry): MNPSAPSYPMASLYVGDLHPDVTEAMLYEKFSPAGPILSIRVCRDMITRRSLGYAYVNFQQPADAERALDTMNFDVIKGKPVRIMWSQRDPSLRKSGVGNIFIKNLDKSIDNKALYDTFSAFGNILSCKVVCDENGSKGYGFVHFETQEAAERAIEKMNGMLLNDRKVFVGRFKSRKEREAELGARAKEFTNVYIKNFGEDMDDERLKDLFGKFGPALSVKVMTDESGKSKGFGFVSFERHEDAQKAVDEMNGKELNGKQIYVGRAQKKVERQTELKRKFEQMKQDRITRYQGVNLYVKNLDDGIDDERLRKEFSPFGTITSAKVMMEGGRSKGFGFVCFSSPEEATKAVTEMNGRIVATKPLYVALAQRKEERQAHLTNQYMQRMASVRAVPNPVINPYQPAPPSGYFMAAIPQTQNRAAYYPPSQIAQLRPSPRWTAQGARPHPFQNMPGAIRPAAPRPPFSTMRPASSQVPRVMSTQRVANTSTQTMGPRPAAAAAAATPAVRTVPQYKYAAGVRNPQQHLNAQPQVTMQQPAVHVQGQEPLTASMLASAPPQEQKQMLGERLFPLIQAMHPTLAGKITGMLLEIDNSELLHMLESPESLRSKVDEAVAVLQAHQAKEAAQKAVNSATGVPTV
# method-summary: PABP1 MLLE–PAM2 interaction inhibitors, dose response, miRNA deadenylation inhibitor project, biochemical, fluorescence polarization, Cy5-PAM2 peptide, secondary (AID 602260)
# Assay type: functional
# measurement-conditions: read-out: IC50_Mean
Calls of active or inactive are those of the source.
readout-label: IC50

Here are 3 molecules together with their reported answers.
Cc1cccc(C)c1NC(=S)Nc1ccc(F)cc1: > 66 µM (inactive)
COC(=O)c1ccc2c(=O)sc(N3CCC(C(N)=O)CC3)nc2c1: > 66 µM (inactive)
O=C1N=C2SCCN2/C1=C\c1ccccc1Cl: > 66 µM (inactive)

Can you give me IC50 for all of these, one by one?
1. CC1CCN(C(=S)c2ccc([N+](=O)[O-])cc2)CC1
2. CCn1c(CSc2nccn2C)nc2cc(C(=O)O)ccc21
3. Fc1ccc(-c2ccnc(S)n2)cc1
4. CCCN(CCC)C(=S)NC(=O)c1ccc(-c2ccccc2)cc1
5. CC(=O)Nc1ccc2nc3ccccc3nc2c1

Resp:
> 66 µM (inactive)
62.1 µM (inactive)
> 66 µM (inactive)
> 66 µM (inactive)
> 66 µM (inactive)

Req: Look up IC50: Cc1ccccc1NC(=N)Nc1ccccc1C
Resp: > 66 µM (inactive)

* * *

# target-of-assay: Leucine aminopeptidase (Plasmodium falciparum 3D7, UniProt Q8IL11)
# Sequence (Q8IL11 whole entry): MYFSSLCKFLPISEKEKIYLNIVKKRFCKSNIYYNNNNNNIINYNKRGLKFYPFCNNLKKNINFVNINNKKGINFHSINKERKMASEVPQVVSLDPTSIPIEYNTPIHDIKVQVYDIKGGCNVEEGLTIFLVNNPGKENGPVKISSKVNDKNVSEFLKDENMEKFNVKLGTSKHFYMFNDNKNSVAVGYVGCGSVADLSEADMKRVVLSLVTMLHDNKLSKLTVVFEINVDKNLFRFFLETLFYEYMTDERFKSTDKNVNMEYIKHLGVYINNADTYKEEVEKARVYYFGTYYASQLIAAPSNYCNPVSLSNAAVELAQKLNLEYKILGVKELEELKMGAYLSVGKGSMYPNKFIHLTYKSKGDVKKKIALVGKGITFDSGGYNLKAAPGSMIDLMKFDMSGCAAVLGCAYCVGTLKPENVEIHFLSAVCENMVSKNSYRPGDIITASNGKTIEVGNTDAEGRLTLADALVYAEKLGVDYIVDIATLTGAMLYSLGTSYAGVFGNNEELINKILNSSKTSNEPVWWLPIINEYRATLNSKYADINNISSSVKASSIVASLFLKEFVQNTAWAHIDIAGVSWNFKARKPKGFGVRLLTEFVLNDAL
# method-summary: P. falciparum M17LAP inhibitors, primary screen, biochemical, fluorogenic H-Leu-NHMec substrate, 1536-well (AID 1619)
# Format: functional
Activity calls are given as the source filed them.
So I've got a bunch of compounds here, and I need their IC50 values.

CCOc1ccc(NC(=O)CN2C(=O)C3CC=CCC3C2=O)cc1 (configuration not stated): 3.86 µM (active)
C/C(CC1CC(C)(C)OC1=O)=N/Nc1nc(-c2ccccc2)cs1 (configuration not stated): 52.8 µM (active)
O=C(NC(Cc1ccc2c(c1)OCO2)C(=O)NC(Cc1ccccc1)C(=O)O)c1ccccc1 (configuration not stated): 19.7 µM (active)
CCn1c(SCC(=O)c2ccc(O)c(O)c2)nnc1-c1ccccc1: 13.3 µM (active)
CCC(C)[C@H](NC(=O)Nc1ccc(Oc2ccccc2)cc1)C(=O)O (some centres not stated): 21.8 µM (active)
Cc1cc(C)c(C#N)c(SCC(O)CS(=O)(=O)Cc2ccccc2)n1 (configuration not stated): 31.5 µM (active)

Req: Look up IC50: CCOC(=O)c1ccc(/C=C2/C=C(c3ccccc3)N(c3ccc(Cl)c(C(=O)O)c3)C2=O)cc1
Resp: 29.5 µM (active)

* * *

# target-of-assay: UniProt:P34949
# Sequence (P34949 whole entry): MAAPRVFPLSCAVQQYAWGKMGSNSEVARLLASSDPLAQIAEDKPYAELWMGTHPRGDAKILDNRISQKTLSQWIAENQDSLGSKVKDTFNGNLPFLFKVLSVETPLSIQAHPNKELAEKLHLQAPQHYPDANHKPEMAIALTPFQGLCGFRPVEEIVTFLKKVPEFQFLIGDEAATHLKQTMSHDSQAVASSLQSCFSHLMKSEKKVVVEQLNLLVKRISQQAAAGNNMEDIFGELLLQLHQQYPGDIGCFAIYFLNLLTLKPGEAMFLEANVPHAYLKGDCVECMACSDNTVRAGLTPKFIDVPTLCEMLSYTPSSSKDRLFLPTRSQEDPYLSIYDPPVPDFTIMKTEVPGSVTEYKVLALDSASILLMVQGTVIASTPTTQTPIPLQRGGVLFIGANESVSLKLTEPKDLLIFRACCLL
# method-summary: human PMI inhibitors, high substrate, primary screen, biochemical, fluorescence intensity, high mannose 6-phosphate (AID 1220)
Calls of active or inactive are those of the source.
readout-label: IC50

C/[N+]([O-])=C\c1ccc2cccc(O)c2n1: 11.8 µM (active)
CC[n+]1c(C)sc2c(C)cc(C)cc21: > 50 µM (not active)
Cc1cc(N/N=C/c2ccc(O)cc2O)nc(-n2nc(C)cc2C)n1: > 50 µM (not active)

Req: Look up IC50: OCCN(CCO)c1ccc2ccccc2c1
Resp: > 50 µM (not active)

* * *

So I've got a bunch of molecules here, and I need their pIC50 values.
# target-of-assay: Kappa-type opioid receptor (Homo sapiens)
# Sequence (P41145 whole entry): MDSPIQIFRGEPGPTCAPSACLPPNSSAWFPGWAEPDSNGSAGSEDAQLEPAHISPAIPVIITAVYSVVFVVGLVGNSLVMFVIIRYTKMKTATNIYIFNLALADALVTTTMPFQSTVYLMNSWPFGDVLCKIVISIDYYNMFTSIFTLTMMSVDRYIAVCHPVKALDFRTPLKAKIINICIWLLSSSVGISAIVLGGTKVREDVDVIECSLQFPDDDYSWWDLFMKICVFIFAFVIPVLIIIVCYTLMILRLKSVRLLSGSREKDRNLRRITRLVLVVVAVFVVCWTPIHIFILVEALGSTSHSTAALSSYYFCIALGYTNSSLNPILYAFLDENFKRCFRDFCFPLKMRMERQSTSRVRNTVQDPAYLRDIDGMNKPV
# Assay type: functional
Give bare numbers, as −log10 of the molar value.

O=C(C#Cc1ccccc1)c1ccc([N+](=O)[O-])cc1: 4.79

# evaluate next
Req: Look up pIC50: O=C(NC(NC(=S)Nc1c(Cl)cccc1Cl)C(Cl)(Cl)Cl)OCc1ccccc1 (stereo not drawn)
Resp: 5.69

* * *

# target-of-assay: Protein skinhead-1 (Caenorhabditis elegans)
# Sequence (P34707 whole entry): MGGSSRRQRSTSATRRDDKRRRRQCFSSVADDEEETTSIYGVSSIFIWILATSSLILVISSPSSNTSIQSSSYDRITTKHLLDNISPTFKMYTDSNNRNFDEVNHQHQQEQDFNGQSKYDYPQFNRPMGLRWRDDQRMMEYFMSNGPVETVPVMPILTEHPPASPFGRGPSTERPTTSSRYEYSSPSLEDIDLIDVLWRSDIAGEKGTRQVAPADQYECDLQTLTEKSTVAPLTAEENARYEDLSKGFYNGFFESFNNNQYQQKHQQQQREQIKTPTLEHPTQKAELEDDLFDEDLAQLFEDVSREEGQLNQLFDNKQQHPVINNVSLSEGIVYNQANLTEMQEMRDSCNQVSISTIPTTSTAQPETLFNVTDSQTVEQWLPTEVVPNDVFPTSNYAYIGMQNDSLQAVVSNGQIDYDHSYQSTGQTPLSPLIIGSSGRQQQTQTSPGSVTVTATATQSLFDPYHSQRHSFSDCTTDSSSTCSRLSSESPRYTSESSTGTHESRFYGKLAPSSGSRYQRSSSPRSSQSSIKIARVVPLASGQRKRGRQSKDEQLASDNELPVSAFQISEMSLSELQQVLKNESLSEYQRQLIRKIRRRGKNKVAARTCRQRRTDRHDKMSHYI
# Format: functional
Activity calls are given as the source filed them.
So I've got a bunch of molecules here, and I need their IC50 values.

Brc1cccc(-c2nc3ccc(Br)cn3c2Cc2ccsc2)c1: > 100 µM (inactive)
c1ccc(-c2ccc(-c3nc(-c4cccnc4)no3)cc2)cc1: > 100 µM (inactive)

# evaluate next
Req: Identify the measured IC50 of Nc1ccc(C=C2C=Cc3ccccc32)cc1 for Protein skinhead-1 (Caenorhabditis elegans).
Resp: 21.3 µM (active)
